Provenance of the data: paper PMC5797143

# System: HepG2 cells
# Test Summary: Cytotoxicity by high content screening (HCS)
# Assay type: cell-based
# Applied Conditions: Malvidin-gluc ↓, NR = No response observed, read-out: Cytotoxicity by HCS (AC50), Cell number
Parameter: AC50 (µM)
Return type: number; implicit unit µM.

Enquiry: Quote AC50 with test system HepG2 cells for `COc1cc(-c2[o+]c3cc(O)cc(O)c3cc2O[C@@H]2O[C@H](CO)[C@@H](O)[C@H](O)[C@H]2O)cc(OC)c1O`
Return: 176

---

Quick list: pIC50 per entry.
# Test System: CYP2C19 (Homo sapiens)
# Construct: from tissue; host or cells: human liver microsomes
# Sequence (P33261 whole entry): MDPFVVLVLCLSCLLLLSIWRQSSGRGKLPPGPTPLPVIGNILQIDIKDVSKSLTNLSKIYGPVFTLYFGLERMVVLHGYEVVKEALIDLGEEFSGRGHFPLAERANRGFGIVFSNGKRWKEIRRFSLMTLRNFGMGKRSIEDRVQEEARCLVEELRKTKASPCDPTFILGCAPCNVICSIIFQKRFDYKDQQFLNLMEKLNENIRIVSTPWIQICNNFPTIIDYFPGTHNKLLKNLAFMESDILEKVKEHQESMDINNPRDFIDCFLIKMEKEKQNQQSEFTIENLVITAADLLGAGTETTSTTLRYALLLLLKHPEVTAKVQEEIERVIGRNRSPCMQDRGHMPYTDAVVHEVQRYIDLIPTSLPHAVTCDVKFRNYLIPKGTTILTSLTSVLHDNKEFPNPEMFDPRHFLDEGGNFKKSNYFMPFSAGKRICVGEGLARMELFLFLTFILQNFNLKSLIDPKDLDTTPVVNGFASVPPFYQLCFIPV
# Test Summary: CYP inhibition in human liver microsomes
# Type: in vitro ADME
# Applied Conditions: read-out: CPY450 inhibition (IC50), CYP2C19
pIC50: −log10 of the molar value.

O=C(O)CCc1ccc(O)c(O)c1 [DHCA, 3(3,4-dihydroxy-phenyl) propionic acid] = < 4.60

Enquiry: Consider the compound `COc1cc(-c2[o+]c3cc(O)cc(O)c3cc2O[C@@H]2O[C@H](CO)[C@@H](O)[C@H](O)[C@H]2O)cc(OC)c1O` . State its measured pIC50.
Return: < 4.60

---

# Test System: CYP3A4 (Homo sapiens)
# Sequence (P08684 2-503): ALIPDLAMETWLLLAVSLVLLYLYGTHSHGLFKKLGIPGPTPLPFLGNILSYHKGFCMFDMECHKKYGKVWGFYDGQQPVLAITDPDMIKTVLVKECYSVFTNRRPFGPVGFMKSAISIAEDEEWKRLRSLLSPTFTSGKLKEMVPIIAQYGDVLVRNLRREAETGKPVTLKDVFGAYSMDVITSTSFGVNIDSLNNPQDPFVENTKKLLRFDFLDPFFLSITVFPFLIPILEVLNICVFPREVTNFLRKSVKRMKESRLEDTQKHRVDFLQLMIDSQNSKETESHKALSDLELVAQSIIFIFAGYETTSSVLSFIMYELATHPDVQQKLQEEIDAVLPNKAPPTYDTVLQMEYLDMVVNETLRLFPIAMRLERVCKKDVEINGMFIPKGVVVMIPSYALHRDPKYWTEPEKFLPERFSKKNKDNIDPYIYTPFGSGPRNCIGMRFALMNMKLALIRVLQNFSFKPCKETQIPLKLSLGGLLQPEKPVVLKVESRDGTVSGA
# Test Summary: CYP inhibition in human liver microsomes
# Format: in vitro ADME
# Applied Conditions: human, pH 7.4, probe midazolam/testosterone, read-out: CPY450 inhibition (IC50), CYP3A4
Parameter: IC50

Enquiry: Consider the compound O=C(O)CCc1ccc(O)c(O)c1 [DHCA, 3(3,4-dihydroxy-phenyl) propionic acid] . State its measured IC50.
Return: > 25 µM
